test: chemical genetic growth profiling, strain panel (AID 1159580);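 further: tested at 20 µM; growth read once vehicle control cultures reached saturation at 30 °C; lower values mean less growth of the strain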; conditions: S. cerevisiae deletion strains, growth OD, locus YNL307C, strain MCK1
Among all 5,500 compounds or so, about 2,000 (36%) were called active. About 18% were inconclusive and are not listed. No stated cut-off is given here; in the data, active means normalized growth mostly below about 0.91 (no sharp cut-off); inconclusive means no clear call, values can overlap the other calls; inactive means mostly above about 0.92. Some of the results follow.
Your response should consist of one outcome taken from active, inactive

| compound | answer_label |
| --- | --- |
| CC1(C)C[C@@H]2C(=O)CC[C@H]3O[C@]3(C)CC[C@H]21 | inactive |
| CCNc1nc(Cl)nc(NC(C)C)n1 | inactive |
| CN1Cc2c(N)cccc2C(c2ccccc2)C1 (stereo unspecified) | inactive |
| C=C(C)c1cc2cc(C(C)=O)c(O)cc2o1 | active |
| CC(C)(O)CC[C@@H](O)[C@](C)(O)C1CC[C@@]2(O)C3=CC(=O)C4C[C@@H](O)[C@@H](O)C[C@]4(C)C3CC[C@]12C (stereo partly specified) | inactive |

Problem: How did this test come out for `Cc1cc(C)nc(NS(=O)(=O)c2ccc(N)cc2)n1` ?
Solution: inactive
